System: HepG2
Test: cytotoxicity call (relative viability < 0.9)
Conditions: 10 µM
In all, about 39,000 compounds went through this assay and about 3,300 (8.5%) were called active. This is one part of a sample in which actives are shown more often than they occur.
measure name: cytotoxicity call

Worked examples, 4 compounds total:
> print(dat)
                              record.smiles  assayed.target    result
1  COc1ccc(S(=O)(=O)Nc2ccc3c(c2)C(=O)N([C@@H](C)CO)C[C@@H](C)[C@@H](CN(C)S(C)(=O)=O)OCCCC[C@@H](C)O3)cc1           HepG2  inactive
2  C[C@H](CO)N1C[C@H](C)[C@H](CN(C)S(=O)(=O)c2ccccc2)Oc2ncc(C#Cc3cccc(F)c3)cc2C1=O           HepG2  inactive
3  C[C@H](CO)N1C[C@H](C)[C@H](CN(C)S(=O)(=O)c2cccc(F)c2)Oc2ncc(C#Cc3cccc(F)c3)cc2C1=O           HepG2  inactive
4  Cc1noc(C)c1S(=O)(=O)Nc1ccc2c(c1)C(=O)N([C@H](C)CO)C[C@@H](C)[C@@H](CN(C)Cc1ccc(C(F)(F)F)cc1)OCCCC[C@H](C)O2           HepG2    active

Asked: Query: cytotoxicity call; subject: `COCCNC(=O)C[C@@H]1CC[C@H]2[C@@H](COC[C@H](O)CN2C(=O)Nc2ccc3c(c2)OCO3)O1`
Given back: inactive

Asked: cytotoxicity call lookup needed for `COc1ccc(C#Cc2cnc3c(c2)C(=O)N([C@H](C)CO)C[C@H](C)[C@H](CN(C)S(=O)(=O)c2ccc(C)cc2)O3)cc1OC` , thanks.
Given back: inactive

Asked: Please give the measured cytotoxicity call for this compound: `Cc1noc(C)c1S(=O)(=O)Nc1ccc2c(c1)C(=O)N([C@H](C)CO)C[C@@H](C)[C@H](CN(C)Cc1ccc(C(F)(F)F)cc1)OCCCC[C@H](C)O2`
Given back: active

Asked: Any idea what its cytotoxicity call is? The compound is `C[C@H]1CN([C@@H](C)CO)C(=O)c2cc(C#Cc3cccnc3)cnc2O[C@@H]1CN(C)Cc1ccc(F)cc1`
Given back: inactive

Asked: Given the compound `C[C@@H]1CN([C@H](C)CO)C(=O)c2cc(C#Cc3cccnc3)cnc2O[C@@H]1CN(C)Cc1ccc(F)cc1` , what is its reported cytotoxicity call?
Given back: inactive

---

System: HepG2
Assay: cytotoxicity call (relative viability < 0.9)
Conditions: 10 µM
Among all 39,000 compounds or so, about 3,300 (8.5%) were called active. Only a selection was taken, and actives are over-represented in it overall.
Bench note: report the call from active, inactive

For orientation, consider the following solved cases.
> print(dat)
                              record.smiles  category
1  C[C@@H]1CCCCO[C@H](CN(C)C(=O)CCC(F)(F)F)[C@H](C)CN([C@H](C)CO)C(=O)c2cc(NS(=O)(=O)c3ccccc3)ccc2O1  inactive
2  C[C@H]1CN([C@@H](C)CO)C(=O)Cc2cc(NC(=O)Cc3ccccc3)ccc2O[C@H]1CN(C)Cc1ccc(Oc2ccccc2)cc1    active
3  COc1ccc(S(=O)(=O)N(C)C[C@@H]2Oc3ncc(C#Cc4ccc(OC)c(OC)c4)cc3C(=O)N([C@H](C)CO)C[C@@H]2C)cc1    active
4  COc1ccc([Si](C)(C)[C@@H]2[C@@H](CCO)O[C@]3(C(=O)N(Cc4ccc(N5C(=O)c6ccccc6Oc6ccccc65)cc4)c4ccccc43)[C@H]2C)cc1    active

Asked: Fill in: this test's call for `C[C@H]1CN([C@@H](C)CO)C(=O)Cc2cc(NC(=O)Cc3ccccc3)ccc2O[C@@H]1CN(C)Cc1ccc(Oc2ccccc2)cc1` is ___
Given back: inactive

Asked: Which outcome did this test record for the compound `C[C@@H]1CN([C@@H](C)CO)C(=O)Cc2cc(NC(=O)Cc3ccccc3)ccc2O[C@@H]1CN(C)Cc1ccc(Oc2ccccc2)cc1` ?
Given back: active

Asked: For this compound, state the assay outcome: `C[C@@H]1CN([C@@H](C)CO)S(=O)(=O)c2ccc(C3=CCCCC3)cc2O[C@H]1CN(C)C(=O)C1CCOCC1`
Given back: inactive
